test system: anesthetized dog; assay: Hemodynamic effects on the anesthetized dog; type: in vivo; settings: anesthetized dog, i.v., cumulative dose
ASSAY_METRIC: cumulative dose at which a 20% drop of cardiac flow is reached

{"RECORD_SMILES": "Cc1c(-c2ccc(Cl)cc2)n[nH]c1OCCCN1CCCCC1", "TESTED_ON": "anesthetized dog", "RESULT": "greater than 4 mg/kg"}
{"RECORD_SMILES": "c1ccc(-c2cc(OCCN3CCCCC3)[nH]n2)cc1", "TESTED_ON": "anesthetized dog", "RESULT": "greater than 4 mg/kg"}
{"RECORD_SMILES": "Cc1c(-c2ccccc2)n[nH]c1OCCN1CCOCC1", "TESTED_ON": "anesthetized dog", "RESULT": "greater than 4 mg/kg"}

----------
In this section we review reported LD50 values for a set of compounds.
test: Acute toxicity (lethal dose 50) in the mouse; settings: in vivo, oral (P.O.), 5 males and 5 females per dose, read-out: LD 50 P.O.

# query: LD50 of entry c1ccc(-c2cc(OCCN3CCCC3)[nH]n2)cc1 [Example 12]
500 to 1000 mg/kg

----------
test system: isolated guinea pig auricle; experiment: Maximum stimulation frequency test on isolated guinea pig auricle; conditions: Cavia porcellus; 10 mg/l; read-out: Δ% MFS (decrease of the maximum frequency followed)
Form field: inhibition at 10 µg/mL (one value per entry).
Field note: include the unit after the figure.

{"RECORD_SMILES": "c1ccc(-c2cc(OCCN3CCOCC3)[nH]n2)cc1", "inhibition at 10 µg/mL": "12%"}
{"RECORD_SMILES": "Cc1c(-c2ccccc2)n[nH]c1OCCN1CCOCC1", "inhibition at 10 µg/mL": "27%"}
{"RECORD_SMILES": "Clc1ccc(-c2cc(OCCN3CCOCC3)[nH]n2)cc1", "inhibition at 10 µg/mL": "15%"}
{"RECORD_SMILES": "Cc1c(-c2ccccc2)n[nH]c1OCCCN1CCCCC1", "inhibition at 10 µg/mL": "40%"}

// switching to the query molecule
Param item = Cc1c(-c2ccc(Cl)cc2)n[nH]c1OCCN1CCCC1 ; retrieve measured inhibition at 10 µg/mL.
45%

----------
test system: isolated guinea pig auricle; assay: Maximum stimulation frequency test on isolated guinea pig auricle; conditions: Cavia porcellus; 10 mg/l; read-out: Δ% MFS (decrease of the maximum frequency followed)
# reported inhibition at 10 µg/mL; entries follow
Give the quantity in %, number only.

Previously resolved entries follow.
{"COMPOUND": "Clc1ccc(-c2cc(OCCN3CCCC3)[nH]n2)cc1 [Example 7]", "UNIT_DESCRIPTOR": "%", "MEASURED_NUMBER": 45}
{"COMPOUND": "Clc1ccc(-c2cc(OCCCN3CCCCC3)[nH]n2)cc1 [Example 3]", "UNIT_DESCRIPTOR": "%", "MEASURED_NUMBER": 53}

Shifting focus to the compound that follows.
What does the record list as inhibition at 10 µg/mL for CN(C)CCCOc1cc(-c2ccc(Cl)cc2)n[nH]1 [Example 1] ?
30

----------
system: anesthetized dog; assay: Hemodynamic effects on the anesthetized dog; assay type: in vivo; conditions: anesthetized dog, i.v.
ASSAY_METRIC: force of ventricular myocardiac contractions (result in words)

{"COMPOUND": "Cc1c(-c2ccc(Cl)cc2)n[nH]c1OCCCN1CCCCC1 [Example 19]", "RESULT": "decreases"}
{"COMPOUND": "Cc1c(-c2ccccc2)n[nH]c1OCCN1CCCC1 [Example 2]", "RESULT": "decreases"}

----------
experiment: Acute toxicity (lethal dose 50) in the mouse; conditions: in vivo, ip, intraperitoneal (I.P.), read-out: LD 50 I.P.
ASSAY_METRIC: LD50

{"COMPOUND": "Cc1c(-c2ccc(Cl)cc2)n[nH]c1OCCN1CCOCC1 [Example 16]", "LD50": "125 to 250 mg/kg"}
{"COMPOUND": "CN(C)CCCOc1cc(-c2ccc(Cl)cc2)n[nH]1 [Example 1]", "LD50": "250 to 500 mg/kg"}
{"COMPOUND": "Cc1c(-c2ccccc2)n[nH]c1OCCN1CCCCC1 [Example 11]", "LD50": "184 mg/kg"}
{"COMPOUND": "Cc1c(-c2ccc(Cl)cc2)n[nH]c1OCCCN1CCCCC1 [Example 19]", "LD50": "62 to 125 mg/kg"}
{"COMPOUND": "Clc1ccc(-c2cc(OCCN3CCCC3)[nH]n2)cc1 [Example 7]", "LD50": "280 mg/kg"}

I have this compound here, Cc1c(-c2ccc(Cl)cc2)n[nH]c1OCCCN(C)C [Example 17] , and I need its recorded LD50.
250 to 500 mg/kg

----------
test system: anesthetized dog; test: Hemodynamic effects on the anesthetized dog; type: in vivo; details: anesthetized dog, i.v.
ASSAY_METRIC: Systolic arterial pressure (result in words)

Solved cases (4 shown):
{"RECORD_SMILES": "c1ccc(-c2cc(OCCN3CCCCC3)[nH]n2)cc1", "RESULT": "does not change"}
{"RECORD_SMILES": "Cc1c(-c2ccccc2)n[nH]c1OCCCN1CCCCC1", "RESULT": "drops moderately"}
{"RECORD_SMILES": "Cc1c(-c2ccccc2)n[nH]c1OCCN1CCOCC1", "RESULT": "does not change"}
{"RECORD_SMILES": "Cc1c(-c2ccccc2)n[nH]c1OCCN1CCCC1", "RESULT": "drops moderately"}

Would you mind telling me what Systolic arterial pressure (result in words) value was observed for Cc1c(-c2ccc(Cl)cc2)n[nH]c1OCCCN1CCCCC1 ?
drops moderately

----------
# LD50 annotations
test: Acute toxicity (lethal dose 50) in the mouse; conditions: in vivo, oral (P.O.), 5 males and 5 females per dose, read-out: LD 50 P.O.
Unit mg/kg implied. Number only.

Solved cases (5 shown):
{"RECORD_SMILES": "CN(C)CCCOc1cc(-c2ccc(Cl)cc2)n[nH]1", "MEASURED_NUMBER": 1000}
{"RECORD_SMILES": "Cc1c(-c2ccc(Cl)cc2)n[nH]c1OCCCN1CCCCC1", "MEASURED_NUMBER": 250}
{"RECORD_SMILES": "Clc1ccc(-c2cc(OCCN3CCCC3)[nH]n2)cc1", "MEASURED_NUMBER": 1000}
{"RECORD_SMILES": "Clc1ccc(-c2cc(OCCN3CCCCC3)[nH]n2)cc1", "MEASURED_NUMBER": 500}
{"RECORD_SMILES": "Cc1c(-c2ccccc2)n[nH]c1OCCN1CCCC1", "MEASURED_NUMBER": 500}

Record request: LD50 value, item Clc1ccc(-c2cc(OCCN3CCOCC3)[nH]n2)cc1
1000

How about CN(C)CCCOc1cc(-c2ccccc2)[nH]n1 ?
1000

Cool, now Cc1c(-c2ccccc2)n[nH]c1OCCCN1CCCCC1
250

----------
system: isolated guinea pig auricle; assay: Maximum stimulation frequency test on isolated guinea pig auricle; conditions: Cavia porcellus; 10 mg/l; read-out: Δ% MFS (decrease of the maximum frequency followed)
Rule: inhibition at 10 µg/mL of 40% or more gives yes (1); anything lower gives no (0).

These solved cases illustrate the format of a correct answer.
{"RECORD_SMILES": "c1ccc(-c2cc(OCCN3CCCCC3)[nH]n2)cc1", "ASSIGNED_LABEL": "yes (1)"}
{"RECORD_SMILES": "Clc1ccc(-c2cc(OCCN3CCCCC3)[nH]n2)cc1", "ASSIGNED_LABEL": "yes (1)"}
{"RECORD_SMILES": "Cc1c(-c2ccc(Cl)cc2)n[nH]c1OCCCN(C)C", "ASSIGNED_LABEL": "no (0)"}
{"RECORD_SMILES": "c1ccc(-c2cc(OCCCN3CCCCC3)[nH]n2)cc1", "ASSIGNED_LABEL": "yes (1)"}
{"RECORD_SMILES": "c1ccc(-c2cc(OCCN3CCCC3)[nH]n2)cc1", "ASSIGNED_LABEL": "no (0)"}
{"RECORD_SMILES": "Cc1c(-c2ccccc2)n[nH]c1OCCN1CCCCC1", "ASSIGNED_LABEL": "yes (1)"}
{"RECORD_SMILES": "Cc1c(-c2ccc(Cl)cc2)n[nH]c1OCCCN1CCCCC1", "ASSIGNED_LABEL": "yes (1)"}
{"RECORD_SMILES": "Cc1c(-c2ccccc2)n[nH]c1OCCN1CCCC1", "ASSIGNED_LABEL": "yes (1)"}

Next up:
Check the entry Cc1c(-c2ccc(Cl)cc2)n[nH]c1OCCN1CCOCC1 : does inhibition at 10 µg/mL equal or exceed 40%?
no (0)

----------
test system: ventricular arrhythmias induced by aconitine in the anesthetized rat; experiment: Antiarrhythmic test with aconitine on the rat; assay type: in vivo; details: read-out: Prolongation of time of appearance of ventricular fibrillation (FV)
ASSAY_METRIC: change in vivo at 10 mg/kg (%)
A number alone suffices; assume %.

Examples from the recorded data:
{"MOLECULE": "Cc1c(-c2ccccc2)n[nH]c1OCCN1CCOCC1 [Example 4]", "MEASURED_NUMBER": 18}
{"MOLECULE": "Clc1ccc(-c2cc(OCCN3CCCC3)[nH]n2)cc1 [Example 7]", "MEASURED_NUMBER": 32}
{"MOLECULE": "Cc1c(-c2ccccc2)n[nH]c1OCCN1CCCC1 [Example 2]", "MEASURED_NUMBER": 44}

Return reported change in vivo at 10 mg/kg; argument: Clc1ccc(-c2cc(OCCCN3CCCCC3)[nH]n2)cc1 [Example 3]
46

Another: Cc1c(-c2ccc(Cl)cc2)n[nH]c1OCCCN1CCCCC1 [Example 19]
35

Param item: Cc1c(-c2ccc(Cl)cc2)n[nH]c1OCCN1CCCC1 [Example 18]
0

Follow-up entry: c1ccc(-c2cc(OCCN3CCCCC3)[nH]n2)cc1 [Example 9]
38

Same for Cc1c(-c2ccccc2)n[nH]c1OCCN1CCCCC1 [Example 11]
18
